molecular target: human androgen receptor (AR) (Homo sapiens); construct: expressed in transfected cells; host or cells: mouse myoblast C2C12 cells, transiently co-transfected; assay: C2C12 AR/ARE reporter assay; format: cell-based
Sequence (P10275 whole entry): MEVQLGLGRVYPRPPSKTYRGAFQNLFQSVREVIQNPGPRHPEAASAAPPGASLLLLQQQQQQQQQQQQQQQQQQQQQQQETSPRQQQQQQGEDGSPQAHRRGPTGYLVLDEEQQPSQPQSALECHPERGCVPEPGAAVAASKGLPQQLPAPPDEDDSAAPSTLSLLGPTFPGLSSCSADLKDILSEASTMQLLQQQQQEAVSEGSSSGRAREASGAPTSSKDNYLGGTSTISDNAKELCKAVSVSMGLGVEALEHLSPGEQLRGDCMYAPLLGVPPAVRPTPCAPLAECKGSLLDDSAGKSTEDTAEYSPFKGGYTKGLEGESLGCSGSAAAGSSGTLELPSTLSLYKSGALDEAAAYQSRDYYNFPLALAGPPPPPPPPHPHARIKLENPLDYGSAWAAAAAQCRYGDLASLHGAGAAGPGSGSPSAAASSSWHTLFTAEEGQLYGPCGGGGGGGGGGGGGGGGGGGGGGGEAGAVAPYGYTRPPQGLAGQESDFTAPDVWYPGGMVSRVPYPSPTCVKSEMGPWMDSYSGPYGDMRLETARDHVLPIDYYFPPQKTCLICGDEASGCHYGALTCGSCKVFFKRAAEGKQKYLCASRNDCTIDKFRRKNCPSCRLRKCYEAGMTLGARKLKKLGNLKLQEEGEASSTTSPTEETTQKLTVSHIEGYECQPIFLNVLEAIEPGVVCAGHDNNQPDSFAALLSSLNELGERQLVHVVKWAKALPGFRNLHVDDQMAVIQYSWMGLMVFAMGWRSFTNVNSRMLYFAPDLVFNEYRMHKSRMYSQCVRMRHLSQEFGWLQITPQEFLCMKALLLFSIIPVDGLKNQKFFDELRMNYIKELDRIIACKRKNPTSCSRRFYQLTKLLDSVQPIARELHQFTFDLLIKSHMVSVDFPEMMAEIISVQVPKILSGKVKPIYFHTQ
pEC50: −log10 of the molar value.
Answer condition not met if pEC50 is under 7, and condition met if it is 7 or more.

[in] Dear colleague, could you confirm whether CO/N=C/c1ccc2c(c1)c1c(n2Cc2cccc(F)n2)CC[C@@H](NC(=O)C2CC2)C1 [Example 209] has pEC50 at or above 7?
[out] condition met

[in] Does CC(C)C(=O)NC1CCc2c(c3ccccc3n2Cc2cccc(F)c2)C1 (centres unmarked) [Example 3] have a reported pEC50 of at least 7?
[out] condition not met

[in] // inclusive: pEC50 at least 7? input: CN(C)C(=O)NC1CCc2c(c3cc(OC(F)(F)F)ccc3n2Cc2cccc(F)n2)C1 (centres unmarked) [Example 165]
[out] condition met

[in] hey, is pEC50 for this one >= 7? CC(C)C(=O)NC1CCc2c(c3ccccc3n2Cc2ccccc2)C1 (centres unmarked) [Example 2]
[out] condition not met

[in] Please check the record CC(C)C(=O)NC1CCc2c(c3cc(-c4cnc(N)s4)ccc3n2Cc2cccc(F)c2)C1 (centres unmarked) [Example 140] and state if its pEC50 is at or above 7.
[out] condition met

[in] Does the molecule COc1cccc2c3c(n(Cc4ccccc4)c12)CCC(NC(=O)C(C)C)C3 (centres unmarked) [Example 76] have recorded pEC50 that is 7 or more?
[out] condition not met

[in] Is it the case that CC(C)C(=O)N[C@@H]1CCc2c(c3cc(C#N)ccc3n2Cc2csc(Cl)n2)C1 [Example 154] has pEC50 reaching or exceeding 7?
[out] condition met

[in] Is pEC50 at least 7? Consider CO/N=C/c1ccc2c(c1)c1c(n2Cc2cccc(F)c2)CCC(NC(=O)C2CC2)C1 (centres unmarked) [Example 202]
[out] condition met

[in] API: above_or_equal(metric=pEC50, cutoff=7) for item Cc1cccc(Cn2c3c(c4cc(Cl)ccc42)CC(NC(=O)C(C)C)CC3)c1 (centres unmarked) [Example 82]
[out] condition met

[in] Hi, just wondering whether CC(C)C(=O)NC1CCc2c(c3cc(Cl)ccc3n2Cc2ccc(C#N)cc2)C1 (centres unmarked) [Example 28] shows pEC50 of 7 or higher.
[out] condition not met

[in] Is the recorded value of pEC50 equal to or greater than 7 for this molecule? CC(C)C(=O)NC1CCc2c(c3cc(C#N)ccc3n2Cc2ccccc2)C1 (centres unmarked) [Example 85]
[out] condition met

[in] Quick check, pEC50 >= 7? CC(C)C(=O)NC1CCc2c(c3cc(F)ccc3n2Cc2ccc(F)cc2)C1 (centres unmarked) [Example 12]
[out] condition not met

[in] Does the reported pEC50 for CC(C)C(=O)NC1CCc2c(c3cc(Cl)ccc3n2Cc2ccccc2O)C1 (centres unmarked) [Example 101] fall at or above the 7 mark?
[out] condition met
